- Tested on: RAW-Dual
- procedure_text: NF-kB SEAP reporter activity, fold change vs agonist alone; cytotoxicity flag (confluency mask): cytotoxic (confluency <70% of control); higher = enhanced NF-kB activity
- test_context: agonist: ODN 1826 (TLR9) 0.5 ug/mL
Whole data set: some 2,900 compounds, median “NF-kB SEAP reporter activity, fold change vs agonist alone” near 0.99, cut for the highest 2% near 2.6. The entries come from a sample that favours the highest values as a whole.
NF-kB SEAP reporter activity listing for selected compounds.
readout_kind: NF-kB SEAP reporter activity

# compound, readout_kind, readout_number
measured = [
    ("Cc1[nH]c2ccccc2c1CCNCc1ccc(/C=C/C(=O)NO)cc1 (library stock concentration (final ~1000-fold dilution): 10 mM)", "NF-kB SEAP reporter activity", 0.219),
    ("O=C(CCCCCCNC(=O)c1cnc(N(c2ccccc2)c2ccccc2Cl)nc1)NO (library stock concentration (final ~1000-fold dilution): 10 mM)", "NF-kB SEAP reporter activity", 2.1),
    ("O=[N+]([O-])c1ccc(S(=O)(=O)N2CCN(c3ccnc4cc(Cl)ccc34)CC2)c([N+](=O)[O-])c1 (library stock concentration (final ~1000-fold dilution): 10 mM)", "NF-kB SEAP reporter activity", 0.333),
]

----------
- Tested on: RAW-Dual
- procedure_text: NF-kB SEAP reporter activity, fold change vs agonist alone; cytotoxicity flag (confluency mask): cytotoxic (confluency <70% of control); higher = enhanced NF-kB activity
- test_context: agonist: ODN 1826 (TLR9) 0.5 ug/mL
Whole data set: some 2,900 compounds, median “NF-kB SEAP reporter activity, fold change vs agonist alone” near 0.99, cut for the highest 2% near 2.6. This is one part of a sample in which the highest values are shown more often than they occur.
Threshold rule: NF-kB SEAP reporter activity greater than or equal to 0.3 is True; below that, False.

# compound, assigned_category
data = [
    ("CCS(=O)(=O)N1CCN(c2ccc(Nc3ncc(C(N)=O)c(NC4CC4)n3)cc2)CC1.Cl (library stock concentration (final ~1000-fold dilution): 10 mM)", "False"),
    ("COc1ccc2c(c1)c(C1=C(c3c[nH]c4ccccc34)C(=O)NC1=O)cn2CCCN(C)C (library stock concentration (final ~1000-fold dilution): 10 mM)", "True"),
    ("CCC1=CC2CN(C1)Cc1c([nH]c3ccccc13)C(C(=O)OC)(c1cc3c(cc1OC)N(C)C1C(O)(C(=O)OC)C(OC(C)=O)C4(CC)C=CCN5CCC31C54)C2 (stereo unspecified) (library stock concentration (final ~1000-fold dilution): 10 mM)", "True"),
    ("CC(C)COCC(CN(Cc1ccccc1)c1ccccc1)N1CCCC1.Cl.O (stereo unspecified) (library stock concentration (final ~1000-fold dilution): 10 mM)", "True"),
    ("COc1ccc(-c2nc(N3CCOCC3)c3sc(CN(C)c4ncc(C(=O)NO)cn4)cc3n2)cn1 (library stock concentration (final ~1000-fold dilution): 10 mM)", "True"),
    ("CN(CCNCc1cn(Cc2ccc(Cl)cc2)nn1)CCNc1ccnc2cc(Cl)ccc12.O=C(O)C(F)(F)F (library stock concentration (final ~1000-fold dilution): 10 mM)", "False"),
    ("COc1cc2nc(N3CCCN(C)CC3)nc(NC3CCN(Cc4ccccc4)CC3)c2cc1OC.Cl.Cl.Cl (library stock concentration (final ~1000-fold dilution): 10 mM)", "False"),
    ("OC1C=C2CCN3Cc4cc5c(cc4C(C1O)C23)OCO5 (stereo unspecified) (library stock concentration (final ~1000-fold dilution): 10 mM)", "True"),
    ("CCC1(O)C(=O)OCc2c1cc1n(c2=O)Cc2cc3cc(O)ccc3nc2-1 (stereo unspecified) (library stock concentration (final ~1000-fold dilution): 10 mM)", "True"),
    ("COc1ccc(N2C(=O)/C(=C/c3ccc([N+](=O)[O-])s3)SC2=S)cc1 (library stock concentration (final ~1000-fold dilution): 10 mM)", "True"),
    ("CC(C)(C)c1nc(-c2cccc(NS(=O)(=O)c3c(F)cccc3F)c2F)c(-c2ccnc(N)n2)s1 (library stock concentration (final ~1000-fold dilution): 10 mM)", "True"),
    ("CN1CCN(c2nc(C3=C(c4c[nH]c5ccccc45)C(=O)NC3=O)c3ccccc3n2)CC1 (library stock concentration (final ~1000-fold dilution): 10 mM)", "True"),
    ("Fc1ccc(Nc2nc(Nc3ccc(-c4nc5ccccc5[nH]4)cc3)nc(N3CCOCC3)n2)cc1 (library stock concentration (final ~1000-fold dilution): 10 mM)", "True"),
    ("CS(=O)(=O)O.Cn1cc(C2=C(c3cn(CCCSC(=N)N)c4ccccc34)C(=O)NC2=O)c2ccccc21 (library stock concentration (final ~1000-fold dilution): 10 mM)", "False"),
    ("CN(CCNc1ccnc2cc(Cl)ccc12)CCNc1ccnc2cc(Cl)ccc12.Cl.Cl.Cl (library stock concentration (final ~1000-fold dilution): 10 mM)", "True"),
    ("Cl.Cl.Cn1cc(CNCC2CCN(c3ncc(C(=O)NO)cn3)CC2)c2ccccc21 (library stock concentration (final ~1000-fold dilution): 10 mM)", "True"),
    ("CN(C)CCCn1cc(C2=C(c3c[nH]c4ccccc34)C(=O)NC2=O)c2ccccc21 (library stock concentration (final ~1000-fold dilution): 10 mM)", "True"),
    ("Cc1sc2c(c1C)C(c1ccc(Cl)cc1)=N[C@@H](CC(=O)NCCCCCCCCNC(=O)COc1cccc3c1C(=O)N(C1CCC(=O)NC1=O)C3=O)c1nnc(C)n1-2 (stereo partly specified) (library stock concentration (final ~1000-fold dilution): 10 mM)", "True"),
    ("O=C(/C=C/c1cccc(S(=O)(=O)Nc2ccccc2)c1)NO (library stock concentration (final ~1000-fold dilution): 10 mM)", "True"),
    ("CN(C)C/C=C/C(=O)Nc1ccc(C(=O)Nc2cccc(Nc3ncc(Cl)c(-c4c[nH]c5ccccc45)n3)c2)cc1.Cl.Cl (library stock concentration (final ~1000-fold dilution): 10 mM)", "False"),
    ("Nc1ncc(-c2ccnc(Nc3ccncc3)n2)c(CC2CC2)n1 (library stock concentration (final ~1000-fold dilution): 10 mM)", "True"),
]
